Hello, the source for this data is PubChem BioAssay (NCATS), in case you need it.

# PROTOCOL TEXT: qHTS Assay for Lipid Storage Modulators (AID 1519); note: % is set by controls: 0 for no effect and ±100 for the full control effect
# COND: Drosophila S3 cells, BODIPY lipid droplet/cell ratio, laser cytometry; at 57.5 µM (top of the series); cells loaded with oleic acid
# Procedure: NIH Molecular Libraries Probe Production Centers Network [MLPCN] NIH Chemical Genomics Center [NCGC] Assay Submitter (PI): Beller, Mathias; Max-Planck-Institut fur Biophysikalische Chemie […] We dispensed 4 uL of cells at 1.25 x 10^6 cells/mL into LoBase Aurora COC 1,536-well plates (black walled, clear bottom) with a bottle-valve solenoid-based dispenser (Aurora) to obtain 5,000 cells/well. […] The ratio of the total intensity in PMT channel 1 over total intensity of channel 3 was also calculated. […]
Records with an inconclusive call do not appear. Activity calls are given as the source filed them. Calls come from the whole dose curve.
OBSERVED PROPERTY: activity change, negative = inhibition

| COMPOUND | RESULT |
| --- | --- |
| CC(=O)NC(CC(=O)O)C(=O)O (stereo unspecified) | 2.97% (inactive) |
| O=C(/C=C/c1ccccc1)c1ccc(O)cc1 | 4.07% (inactive) |
| C=C1C(C2(C)C=CC(=O)C(C)(C)C2CC(=O)OC)CC[C@@]2(C)C(c3ccoc3)OC(=O)C3OC132 (stereo partly specified) | 4.06% (inactive) |
| CC(C(=O)O)C1CCC2C3CC=C4CC(O)CC[C@@]4(C)C3CC[C@]12C (stereo partly specified) | 4.4% (inactive) |
| COc1cc(NS(C)(=O)=O)ccc1Cc1c2ccccc2nc2ccccc12 | 4.8% (inactive) |
| CC1CCC(C(C)C)C(=O)C1 (stereo unspecified) | 1.11% (inactive) |
| NC(CCC(=O)N[C@@H](CS)C(=O)NCC(=O)O)C(=O)O (stereo partly specified) | 8.76% (inactive) |
| CC(=O)OCC1=C(C(=O)O)N2C(=O)C(NC(=O)Cc3cccs3)C2SC1 (stereo unspecified) | 9.08% (inactive) |
| CC(=O)OC1CC2C(C)(C)C(O)C=C[C@@]2(C)C2CC[C@@]3(C)C(c4ccoc4)OC(=O)C4OC43[C@]12C (stereo partly specified) | 8.59% (inactive) |
| CC(C)C(C)/C=C/C(C)C1CCC2C3=CCC4CC(=O)CC[C@@]4(C)C3CC[C@]21C (stereo partly specified) | 5.02% (inactive) |
| N[C@@H]1C(O)OC(CO)C(O)C1O (stereo partly specified) | 5.31% (inactive) |
| C=C[C@](C)(O)CCC1C(=C)CC(O)C2C(C)(C)CCCC12C (stereo partly specified) | 10.1% (inactive) |
| OCC1OC(n2cnc3c(NCc4ccco4)ncnc32)C(O)C1O (stereo unspecified) | -0.247% (inactive) |
| CC(C)(O)C1CC[C@@]2(C)C3CCC4[C@@]5(C)CCCC(C)(C)C5C(O)C[C@]4(C)[C@]3(C)CC[C@@H]12 (stereo partly specified) | 5.94% (inactive) |
| CC(=O)OC1CC(OC(C)=O)[C@]2(C)C(CC(=O)[C@]3(C)C2CC[C@@]2(C)C(c4ccoc4)OC(=O)C4O[C@@]423)C1(C)C (stereo partly specified) | 4.36% (inactive) |
| Cc1ccnc(N)c1 | -1.11% (inactive) |
| CO[C@]12CC(COC(=O)c3cncc(Br)c3)CN(C)[C@@H]1Cc1cn(C)c3cccc2c13 (stereo partly specified) | 10.2% (inactive) |
| CC1(C)OC2C(CO)OC(n3cnc4c(=O)[nH]cnc43)C2O1 (stereo unspecified) | 1.95% (inactive) |
| O=c1cc(-c2ccccc2)oc2cc(O)c(O)cc12 | -1.09% (inactive) |
| CC(C)Oc1ccc2c(=O)cc(-c3ccccc3)oc2c1 | 14.1% (inactive) |
| CC(=O)SC1CC2=CC(=O)CC[C@@]2(C)C2CC[C@@]3(C)[C@@H](CC[C@@]34CCC(=O)O4)C12 (stereo partly specified) | -11.4% (inactive) |
| CC(=O)OCC(=O)[C@@]1(O)CCC2C3CCC4=CC(=O)CC[C@]4(C)C3C(O)C[C@]21C (stereo partly specified) | 7.11% (inactive) |
| C[C@]12C=CC(=O)C=C1CCC1C2C(=O)C[C@]2(C)C1CC[C@]2(O)C(=O)CO (stereo partly specified) | 8.15% (inactive) |
| CC(=O)N[C@H](CC(C)C)C(=O)O | 6.38% (inactive) |
| NCC1CCCCC1CC(=O)O (stereo unspecified) | 5.88% (inactive) |
| C[C@]12CCC3c4ccc(OC(=O)c5ccccc5)cc4CCC3C1CCC2=O (stereo partly specified) | 11.1% (inactive) |
| [N-]=[N+]=NCC1OC(n2cnc3c(=O)[nH]c(N)nc32)C(O)C1O (stereo unspecified) | 4.07% (inactive) |
| O=C(O)C1=CC(O)[C@@H](O)C(O)C1 (stereo partly specified) | 3.18% (inactive) |
| CN(C)CC/C=C1/c2ccccc2COc2ccccc21 | 0.286% (inactive) |
| C[C@@H]1OC(OC2C(OC3CC[C@@]4(C)C5CC=C6C7CC(C)(C)CC[C@@]7(C(=O)O)CCC6(C)C5(C)CCC4[C@]3(C)CO)OCC(O)C2O)C(O)C(O)C1O (stereo partly specified) | 3.66% (inactive) |
| CC1CCC(C(C)C)[C@H](O)C1 (stereo partly specified) | 8.01% (inactive) |
| CCC1OC(=O)C(C)[C@@H](O[C@H]2C[C@@](C)(OC)C(O)C(C)O2)C(C)[C@@H](O[C@@H]2OC(C)CC(N(C)C)C2O)[C@@](C)(O)CC(C)C(=O)[C@@H](C)C(O)[C@]1(C)O (stereo partly specified) | -1.12% (inactive) |
| Cc1cc2ccc(=O)oc2cc1OC[C@@H](O)C(C)(C)O | 5.47% (inactive) |
| NC(C(=O)NC1C(=O)N2C(C(=O)O)=C(Cl)CSC12)c1ccccc1 (stereo unspecified) | 8.35% (inactive) |
| CC1(O)CC2C(CC1O)C2(C)C (stereo unspecified) | 2.85% (inactive) |
| CC1(C)CC2C1CC[C@]1(C)CCC3C(C(=O)O)CC(=O)O[C@]32C1 (stereo partly specified) | 3.56% (inactive) |
| CC1(C)CCC[C@]2(C)C3CC(=O)O[C@@]3(C)CC[C@H]12 (stereo partly specified) | 5.49% (inactive) |
| CC12CCC3C(=CCc4cc(O)ccc43)C1CCC2=O (stereo unspecified) | 5.72% (inactive) |
| COc1ccc2c(c1OC)C(=O)O[C@H]2C1c2c(cc3c(c2OC)OCO3)CCN1C (stereo partly specified) | 8.59% (inactive) |
| C[C@]12CCC(=O)C=C1CCC1C2C(=O)C[C@]2(C)C1CC[C@]2(O)C(=O)CO (stereo partly specified) | -0.346% (inactive) |
| CCC(/C=C/C(C)C1CCC2C3CCC4=CC(=O)CC[C@@]4(C)C3CC[C@@]12C)C(C)C (stereo partly specified) | 4.65% (inactive) |

###

# PROTOCOL TEXT: qHTS Assay for Lipid Storage Modulators (AID 1519); note: % is set by controls: 0 for no effect and ±100 for the full control effect
# COND: Drosophila S3 cells, BODIPY lipid droplet/cell ratio, laser cytometry; at 57.5 µM (top of the series); cells loaded with oleic acid
Inconclusive results are not listed.
activity change, negative = inhibition values by entry

| COMPOUND | ENDPOINT UNIT | activity change, negative = inhibition |
| --- | --- | --- |
| O=c1cc(-c2ccccc2O)oc2cc(O)ccc12 | % | 8.08 |
| Nc1nc2c(c(=O)[nH]1)N(C=O)C(CNc1ccc(C(=O)NC(CCC(=O)O)C(=O)O)cc1)CN2 (centres undefined) | % | 6.17 |
| CCC(C(N)=O)c1ccccc1 (centres undefined) | % | 9.01 |
| COc1cc(OC)c2c(=O)c(O)c(-c3ccc(OC)c(OC)c3)oc2c1 | % | 4.09 |
| CC(C)/C(O)=C1/C(=O)OC(c2ccoc2)[C@@]2(C)C(O)C(O)[C@@]34OC5(C)OC67CC(C)(C(O)[C@@]6(O)C(O)[C@@]3(O5)C12)C(CC(=O)O)[C@@]74C (some centres undefined) | % | 0.873 |
| CS(=O)(=O)Nc1cccc(-c2nc(Nc3ccc(F)cc3)c3ccccc3n2)c1 | % | 3.03 |
| CC1(C)CC2/C(CO)=C/C=C/[C@](C)(O)CC[C@]21O (some centres undefined) | % | 4.24 |
| OCC1OC([S-])[C@H](O)C(O)C1O.[Au+] (some centres undefined) | % | 9.01 |
| COc1cc(/C=C/C(=O)O)cc(OC)c1OC | % | 3.87 |
| COc1c2ccccc2nc2occc12 | % | 9.64 |
| CC(=O)NC1C(O)C[C@@](O)(C(=O)O)OC1[C@@H](O)C(O)CO (some centres undefined) | % | 3.62 |
| CC(=O)OC1CC[C@]2(C)C(=CCC3C4CCC(C(C)CCCC(C)C)[C@]4(C)CCC32)C1 (some centres undefined) | % | 5.26 |
| O=C(/C=C/c1ccccc1)c1ccc(O)cc1O | % | -11.9 |
| CC(=O)OCC1OC(n2cnc3c(=O)[nH]cnc32)C(OC(C)=O)C1OC(C)=O (centres undefined) | % | 3.9 |
| CC(=O)OC1CC2C(C)(C)C(O)CC[C@@]2(C)C2CC[C@@]3(C)C(c4ccoc4)OC(=O)C4O[C@@]43[C@]12C (some centres undefined) | % | -1.7 |
| COc1ccc(-c2cc(=O)c3c(O)c(OC)c(O[C@@H]4OC(COC5OC(C)C(O)C(O)[C@@H]5O)C(O)C(O)C4O)cc3o2)cc1 (some centres undefined) | % | 4.35 |
| Nc1nc2c([nH]c(=S)n2C2OC(CO)C(O)C2O)c(=O)[nH]1 (centres undefined) | % | 2.15 |
| CC1CC[C@@]23CCC4(C)[C@@]5(C)CCC6C(C)(C)C(O)CC[C@@]6(C)C5C=C[C@@]4(OC2=O)C3C1C (some centres undefined) | % | 1.82 |
| COC(=O)CC1C(C)(C)C(OC(C)=O)[C@@]2(O)C=C3C4CC(=O)OC(c5ccoc5)[C@]4(C)CCC3[C@@]1(C)C2=O (some centres undefined) | % | 10.4 |
| O=C(Oc1cc(OC(=O)c2ccccc2)c2c(c1)OC(c1ccc(OC(=O)c3ccccc3)c(OC(=O)c3ccccc3)c1)[C@@H](OC(=O)c1ccccc1)C2)c1ccccc1 (some centres undefined) | % | -8.04 |
| CCN1CCN(C(=O)NC(C(=O)NC2C(=O)N3C2SC(C)(C)C3C(=O)O)c2ccccc2)C(=O)C1=O (centres undefined) | % | 7.43 |
| COC(=O)CC1C(C)(C)C(=O)C2CC3=C4CC(=O)OC(c5ccoc5)[C@]4(C)CCC3[C@@]1(C)C2=O (some centres undefined) | % | 1.08 |
| CC1(C)C(O)C=C[C@@]2(C)C1CC(=O)O[C@@]1(C)C3=CC(=O)OC(c4ccoc4)[C@]3(C)CCC21 (some centres undefined) | % | 9.57 |
| O=c1cc(-c2cccc(O)c2)oc2ccc(O)cc12 | % | 13.1 |
| CO[C@]12C(COC(N)=O)C3=C(C(=O)C(C)=C(N)C3=O)N1CC1NC12 (some centres undefined) | % | 3.3 |
| COc1cc(O)cc(OC)c1OC | % | 1.28 |
| CC(=O)N[C@H](Cc1c[nH]c2ccccc12)C(N)=O | % | 4.6 |
| CC1(C)OC2CC3C4CC(F)C5=CC(=O)CC[C@@]5(C)C4C(O)C[C@@]3(C)[C@]2(C(=O)CO)O1 (some centres undefined) | % | 4.43 |
| CSc1ncnc2c1ncn2C1OC(CO)C(O)C1O (centres undefined) | % | -6.93 |
| CC1C(O)CC2C(C(=O)O)=CO[C@@H](O[C@H]3OC(CO)C(O)C(O)C3O)C21 (some centres undefined) | % | 4.54 |
| COC(=O)c1c(C)cc(OC)cc1O | % | 8.17 |
| CC1=C(C2=C(C)C(C(C)C)C3=C(C(=O)C(O)C3O)C2O)C(O)C2=C(C(O)C(O)C2=O)C1C(C)C (centres undefined) | % | 1.34 |
| CC1(C)SC2C(NC(=O)C(NC(=O)N3CCNC3=O)c3ccccc3)C(=O)N2C1C(=O)O (centres undefined) | % | 8.06 |
| COc1cc(C(=O)OC2CC[C@]3(C)C4CCC5[C@]6(O)CC(O)[C@]7(O)C(CN8CC(C)CCC8[C@]7(C)O)[C@]6(O)C[C@@]53O[C@]24O)cc(OC)c1OC (some centres undefined) | % | 4.04 |
| CCOc1cccc(C(=O)c2ccc(O)c(O)c2O)c1 | % | 3.56 |
| CCCCCCCCCCCCCc1ccco1 | % | 1.58 |
| [N-]=[N+]=Nc1nc2c(N)ncnc2n1C1OC(CO)C(O)C1O (centres undefined) | % | -16.2 |
| COc1cccc2c1CCC1=CC(=O)CC[C@@]12C | % | 11.4 |
| CC(=O)OCCC(C)CCC=C(C)C (centres undefined) | % | 5.97 |
